The reported numbers originate from the supplement of paper PMC9170038.

- Test system: MS2 coat protein
- assay.procedure: apparent KD of MS2 coat protein; designed switch direction (-1 OFF switch, 1 ON switch): 1; higher = weaker reporter binding
- run.parameters: input ligand: FMN 200 uM
Measured apparent KD of MS2 coat protein of individual entries

[
  {
    "sequence": "AUUAAUAAUCGAGGAUAUCACGUCGAUUAGACGUGAGAAGGCGAUCAUAACAUGAGGAUCACCCAUGUAUUACAUGAAGUUAAU [SSNG1/4-B2] (Eterna round: R96, puzzle: Same State NG 1)",
    "assay.system": "MS2 coat protein",
    "apparent KD of MS2 coat protein (nM)": 25.3
  },
  {
    "sequence": "GUAGCAUACCGAGGAUAUUCAUAUUAACAUGAGGAUCACCCAUGUUUAGGUCGAUUACGACCUUGGGAGAAGGCGGAAUGCUAC [Xeonanis - 20 Mod33] (Eterna round: R96, puzzle: Same State NG 2)",
    "assay.system": "MS2 coat protein",
    "apparent KD of MS2 coat protein (nM)": 12.3
  },
  {
    "sequence": "CUCAACAACACAGGAUAUCCAGGGAAAAGCCCUGGAGAAGGGUGACCAACAUGAGGAUCACCCAUGUGACGGCUAAACCGUCUG [Inususisre] (Eterna round: R96, puzzle: Same State NG 1)",
    "assay.system": "MS2 coat protein",
    "apparent KD of MS2 coat protein (nM)": 319
  }
]

* * *

Measured apparent KD of MS2 coat protein of individual entries
- Tested on: MS2 coat protein
- assay.procedure: apparent KD of MS2 coat protein; designed switch direction (-1 OFF switch, 1 ON switch): -1; higher = weaker reporter binding
- run.parameters: input ligand: FMN 200 uM

[
  {
    "sequence": "CUAAUGUAUCAGGAUAUGAUUAUAUGUGUUGGAUCAGAAGGGAUAACAUGAGGAUCACCCAUGUUGUGGAGUGA [JR_Ex6_Sub036] (Eterna round: R97, puzzle: Exclusion 6)",
    "assay.system": "MS2 coat protein",
    "apparent KD of MS2 coat protein": "202 nM"
  },
  {
    "sequence": "AAGCUGUCAGGAUAUCGUUAAUUUAGUUGUUUGUAUUAGUUCGAGAAGGGACAUGAGGAUCACCCAUGUAUGUA [Ex4 #39] (Eterna round: R97, puzzle: Exclusion 4)",
    "assay.system": "MS2 coat protein",
    "apparent KD of MS2 coat protein": "76.3 nM"
  },
  {
    "sequence": "AAACCUGAAGUCAGGAUAUGAAGUAUCACUGUACUUCAGAAGGGACUUGAGGAUCACCCAAGUAGCCGUGAGGC [jl-bmx4.4.67 ViennaUCT mod] (Eterna round: R97, puzzle: Brourd's mod of Exclusion 4)",
    "assay.system": "MS2 coat protein",
    "apparent KD of MS2 coat protein": "116 nM"
  }
]

* * *

- Test system: K4 kissing-loop RNA reporter;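 further: bound reporter read as fluorescence of individual clusters on recovered sequencing chips by microscopy, with normalized cluster intensities fitted with a binding model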
- assay.procedure: apparent KD of K4 kissing-loop reporter; higher = weaker reporter binding
- run.parameters: Eterna round: R107; input ligand: FMN 200 uM
Measured apparent KD of K4 kissing-loop reporter of individual entries

[
  {
    "sequence": "GCUGCCAUGGCAGGAUAUAUAAAUGCUGAGUGAUGUUCUGCAUCAUAUGUCCCUGACCGCGGCGGUGUAGAAGGGCCAUGGCAGC",
    "assay.system": "K4 kissing-loop RNA reporter",
    "unit.descriptor": "nM",
    "apparent KD of K4 kissing-loop reporter": 135
  },
  {
    "sequence": "UGAGGGAUCUCGGCCGCCACUCGUGGGAAAUGGGCCUCAGGGAUAUAGUGAUGUUAUGUAAAGAAGAGGACCGGGAGAAGGAAGG [ExTryptoB.Dh]",
    "assay.system": "K4 kissing-loop RNA reporter",
    "unit.descriptor": "nM",
    "apparent KD of K4 kissing-loop reporter": 230
  },
  {
    "sequence": "AAACGUUGGUCGGAUACCAGCUUGAUCGGAAACGAUCUGCUGGAGUGAUGUUCCAAGUAAAGCCCUUGGCAGCCGACCGACGAAA [MAT - Same State Theophlline B - Mod of Eli - D18]",
    "assay.system": "K4 kissing-loop RNA reporter",
    "unit.descriptor": "nM",
    "apparent KD of K4 kissing-loop reporter": 148
  },
  {
    "sequence": "UUUUAAAUAUCUGAUACCAGAGCGAAUAUAUGUAGUGAUGUUAUAUACAAAAUAAAUAAGCUCCCUUGGCAGCAGUAUUAAUUUU [Astros-ExyTheB#?#ED14.66]",
    "assay.system": "K4 kissing-loop RNA reporter",
    "unit.descriptor": "nM",
    "apparent KD of K4 kissing-loop reporter": 1020
  },
  {
    "sequence": "GUAUCGCUAGGAGGAUAUUCCAUUUUACAUAGAAAUGGCUAUGCGAAGUGAUGUUUCGAUUUACGGGAAGAAGGCCUAGUGAUAC [FMN B 22]",
    "assay.system": "K4 kissing-loop RNA reporter",
    "unit.descriptor": "nM",
    "apparent KD of K4 kissing-loop reporter": 160
  },
  {
    "sequence": "UCGCCCGAUGGAGAUACCAGCAGUUGUGCAGUGAUGUUGCACAAGUACUCGCUCCAUUGCUGCCCUUGGCAGCUCCCGGCAAACA [Enraed]",
    "assay.system": "K4 kissing-loop RNA reporter",
    "unit.descriptor": "nM",
    "apparent KD of K4 kissing-loop reporter": 93.3
  },
  {
    "sequence": "GCCUACGAUGCAGGAUAUAGCUCGCGAGUGAUGUUCGCAGCUGUAUGGUAGUAAGCUUCCACGUGUCUAGAAGGGCAUCGUAGGC [#01 K4 FMN B Exclusion]",
    "assay.system": "K4 kissing-loop RNA reporter",
    "unit.descriptor": "nM",
    "apparent KD of K4 kissing-loop reporter": 131
  },
  {
    "sequence": "UGAUAGGACAGAAGGAGCGGGAGUGAUGUUCCCAAAUGGAUAGGUCGACAAAGUCGACCCUCCCAGGUAGGUCGCUGUCCUAUCU [ArgBX 7 #SwitchBubble #StaticStem]",
    "assay.system": "K4 kissing-loop RNA reporter",
    "unit.descriptor": "nM",
    "apparent KD of K4 kissing-loop reporter": 206
  },
  {
    "sequence": "UGUCAUUGGUCUGAUACCAGUUAGACCGAUAGGUCAAAACUGGAGUGAUGUUCCUAAAAUAACCCUUGGCAGCAGACCGAUGACU [TheoBS 2 #SwitchBubble #StaticStem]",
    "assay.system": "K4 kissing-loop RNA reporter",
    "unit.descriptor": "nM",
    "apparent KD of K4 kissing-loop reporter": 1380
  },
  {
    "sequence": "UGAUAGGACAGAAGGAGCGGAAGUGAUGUUUCCAAAAGGAUAAGGUGUCAAAAGACACCCUUCCAGGUAGGUCGCUGUCCUAUCU [ArgBX 13 #Palindromic #SwitchBubble #StaticStem]",
    "assay.system": "K4 kissing-loop RNA reporter",
    "unit.descriptor": "nM",
    "apparent KD of K4 kissing-loop reporter": 148
  },
  {
    "sequence": "AAGUGGGAACGGCCCAAUAAAGUGUUUGUCAAGGAUAUUAUUCACAUAAGAAGGUGACAGACCACCUCCGGAGUGAUGUUUUGGA [theeternabot_sameState_KL_FMN_A_42]",
    "assay.system": "K4 kissing-loop RNA reporter",
    "unit.descriptor": "nM",
    "apparent KD of K4 kissing-loop reporter": 581
  },
  {
    "sequence": "UACUAUAGUGAUGUUAUAGAUAAACCAGAUACCAGUGUAACAUAACACCCUUGGCAGCUGAUGAGGGAACUAUUGAAAACAAUAG [AstroSTH-A#7newdesignED4.86]",
    "assay.system": "K4 kissing-loop RNA reporter",
    "unit.descriptor": "nM",
    "apparent KD of K4 kissing-loop reporter": 248
  },
  {
    "sequence": "AGCAAAACCAAAGGAUAUUGGCAGUCGAUGUACCAUGUUCCCGUAGCAGGUUGAGUGAUGUUUAAGCAAGAAGGUUGGCGUUUGG [theeternabot_exclusion_KL_FMN_B_12]",
    "assay.system": "K4 kissing-loop RNA reporter",
    "unit.descriptor": "nM",
    "apparent KD of K4 kissing-loop reporter": 560
  },
  {
    "sequence": "AAUAUCUAGUAUAUUUUUAAUAAAACAGAUACCAGUGAUAAUAGACACCCUUGGCAGCUGGUCGAGUGAUGUUCGUUUAUAUUAA [JR_SSTheophyA_Sub006]",
    "assay.system": "K4 kissing-loop RNA reporter",
    "unit.descriptor": "nM",
    "apparent KD of K4 kissing-loop reporter": 85.5
  },
  {
    "sequence": "AAAUAGAUCAGUCACCCAGUGAUGUUGGAAGGAGCGUGCGAAAGCACAGGUAGGUCGCCAUAAUAAAAGUGGCUGAUCAAAAUAA",
    "assay.system": "K4 kissing-loop RNA reporter",
    "unit.descriptor": "nM",
    "apparent KD of K4 kissing-loop reporter": 446
  },
  {
    "sequence": "GGAAAUCUUGCCGAUACCAGAUCGCGCGGCCAUUGCUAGUGAUGUUGGCAAUAAGUACUCAUCCCUUGGCAGCGGUAAGGCAGUG [theeternabot_sameState_KL_Theo_B_23]",
    "assay.system": "K4 kissing-loop RNA reporter",
    "unit.descriptor": "nM",
    "apparent KD of K4 kissing-loop reporter": 390
  },
  {
    "sequence": "AGAGUUAUGCGAGGAUAUGCAGUUAGUACUCAAAGAGUACUAACGGCAGAGUGAUGUUCUGUGAAAGCAGAAGGUGCAUAACUCA [Omei KL FMN B SS B v8]",
    "assay.system": "K4 kissing-loop RNA reporter",
    "unit.descriptor": "nM",
    "apparent KD of K4 kissing-loop reporter": 195
  },
  {
    "sequence": "AAGCAGUCACCCGAAGCCAUCGAAGAUGGACGAGGACCGGUACGGCCGCCACUCGGAGUGAUGUUCCGAAGACUGCAAAAUAAAA",
    "assay.system": "K4 kissing-loop RNA reporter",
    "unit.descriptor": "nM",
    "apparent KD of K4 kissing-loop reporter": 269
  },
  {
    "sequence": "AAGCAGUCACUCGAAAUCAUCGAAGAUGAACGAGGACCGGUACGGCCGCCACUCGGAGUGAUGUUCCGAAGACUGCAAAAUAAAA [MatMod 1 - Jieux - Exclusion - Tryptophan A]",
    "assay.system": "K4 kissing-loop RNA reporter",
    "unit.descriptor": "nM",
    "apparent KD of K4 kissing-loop reporter": 593
  },
  {
    "sequence": "CGCGCGCGCUGAGAGGCGCGCGCGAAUGAUACCAGUAUAUAAGAAUACCCUUGGCAGCAUAAGAAAGAUAUAGUGAUGUUGUAUA [SSTheophA.D]",
    "assay.system": "K4 kissing-loop RNA reporter",
    "unit.descriptor": "nM",
    "apparent KD of K4 kissing-loop reporter": 75.3
  },
  {
    "sequence": "CACCAUGAAUUCUCUAGGAGUGAUGUUUUUCGAGGACCGGUACGGCCGCCACUCGGACGAGGACCGUGGGAGCGGCGAAAAGACU [ghgmullin]",
    "assay.system": "K4 kissing-loop RNA reporter",
    "unit.descriptor": "nM",
    "apparent KD of K4 kissing-loop reporter": 206
  },
  {
    "sequence": "UGCAGUGAUGUUGCGAGUGGCAGAUACGAAGGAGCGUGGUGAGACACAGGUAGGUCGCGUAUCGAAAUUGCUGUCACUAAAAUGC [#8]",
    "assay.system": "K4 kissing-loop RNA reporter",
    "unit.descriptor": "nM",
    "apparent KD of K4 kissing-loop reporter": 385
  },
  {
    "sequence": "GCACUACAAUAAGGAUAUCAUAAAAUGGAGAGCGAGUGAUGUUCGCAGAGACACCUAUUUUUCCUAUGAGAAGGUAUUAACGCCG [theeternabot_sameState_KL_FMN_B_40]",
    "assay.system": "K4 kissing-loop RNA reporter",
    "unit.descriptor": "nM",
    "apparent KD of K4 kissing-loop reporter": 97.8
  }
]
